- measurement_target: T1, orthogonal hCD122 receptor (hoRb), hCD122 with H133D and Y134F (human, UniProt P14784 27-550); further: reference of the scale not given here
- T1 sequence: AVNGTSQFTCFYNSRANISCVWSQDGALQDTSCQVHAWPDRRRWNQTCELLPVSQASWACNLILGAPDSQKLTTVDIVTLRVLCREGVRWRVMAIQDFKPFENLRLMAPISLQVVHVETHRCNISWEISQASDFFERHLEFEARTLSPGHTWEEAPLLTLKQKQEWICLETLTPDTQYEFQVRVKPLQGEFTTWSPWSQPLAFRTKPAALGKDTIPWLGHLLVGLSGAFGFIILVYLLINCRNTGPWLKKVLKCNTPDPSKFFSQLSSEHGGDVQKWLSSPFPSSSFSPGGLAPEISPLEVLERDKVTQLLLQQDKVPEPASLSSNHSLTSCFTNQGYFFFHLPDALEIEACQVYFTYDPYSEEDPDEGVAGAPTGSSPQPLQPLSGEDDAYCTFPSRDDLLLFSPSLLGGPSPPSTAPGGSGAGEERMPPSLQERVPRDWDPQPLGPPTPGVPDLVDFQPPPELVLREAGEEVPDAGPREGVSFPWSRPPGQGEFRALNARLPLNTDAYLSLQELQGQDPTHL
- protocol_summary: cell-based or functional assay
Binarize Relative Proliferation Fold Change 3F8 1:50 at 20 fold; below is Y, at or above is N.

binder | classification
SQVLSA (ligand) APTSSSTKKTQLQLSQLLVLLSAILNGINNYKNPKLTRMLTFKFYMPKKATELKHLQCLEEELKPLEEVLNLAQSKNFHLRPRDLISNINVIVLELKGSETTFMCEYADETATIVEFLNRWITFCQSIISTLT | Y
SQVLDA (ligand) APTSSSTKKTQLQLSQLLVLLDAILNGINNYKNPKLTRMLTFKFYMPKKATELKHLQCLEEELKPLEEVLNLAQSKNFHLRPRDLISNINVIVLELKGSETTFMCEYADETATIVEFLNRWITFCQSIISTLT | N
L18M, SQVLKA (ligand) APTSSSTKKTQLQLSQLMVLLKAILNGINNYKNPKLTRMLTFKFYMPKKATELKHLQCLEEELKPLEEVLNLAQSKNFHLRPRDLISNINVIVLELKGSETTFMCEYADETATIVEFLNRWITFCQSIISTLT | Y
L80F, SQVLKA (ligand) APTSSSTKKTQLQLSQLLVLLKAILNGINNYKNPKLTRMLTFKFYMPKKATELKHLQCLEEELKPLEEVLNLAQSKNFHFRPRDLISNINVIVLELKGSETTFMCEYADETATIVEFLNRWITFCQSIISTLT | Y
T3Q, SQVLKA (ligand) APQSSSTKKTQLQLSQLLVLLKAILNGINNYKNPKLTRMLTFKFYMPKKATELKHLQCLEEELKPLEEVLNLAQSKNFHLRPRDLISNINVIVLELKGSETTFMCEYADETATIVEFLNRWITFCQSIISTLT | Y
T3P, SQVLKA (ligand) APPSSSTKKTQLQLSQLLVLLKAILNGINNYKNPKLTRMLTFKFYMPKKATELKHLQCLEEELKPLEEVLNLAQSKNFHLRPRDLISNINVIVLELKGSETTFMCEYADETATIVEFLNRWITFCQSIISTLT | N
SQVLKW (ligand) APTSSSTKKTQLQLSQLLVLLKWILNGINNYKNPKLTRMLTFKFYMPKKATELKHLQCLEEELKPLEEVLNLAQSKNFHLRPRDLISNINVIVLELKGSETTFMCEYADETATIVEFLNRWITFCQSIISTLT | N
SNVLKA (ligand) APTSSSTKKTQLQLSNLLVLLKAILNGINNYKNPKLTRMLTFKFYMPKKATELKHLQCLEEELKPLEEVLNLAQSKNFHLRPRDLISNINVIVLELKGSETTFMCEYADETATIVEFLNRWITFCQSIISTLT | Y
T3C, SQVLKA (ligand) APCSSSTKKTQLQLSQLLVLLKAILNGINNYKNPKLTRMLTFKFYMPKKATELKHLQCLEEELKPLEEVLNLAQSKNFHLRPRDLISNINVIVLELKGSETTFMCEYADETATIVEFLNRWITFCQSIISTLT | Y
L18G, SQVLKA (ligand) APTSSSTKKTQLQLSQLGVLLKAILNGINNYKNPKLTRMLTFKFYMPKKATELKHLQCLEEELKPLEEVLNLAQSKNFHLRPRDLISNINVIVLELKGSETTFMCEYADETATIVEFLNRWITFCQSIISTLT | Y
SQILKA (ligand) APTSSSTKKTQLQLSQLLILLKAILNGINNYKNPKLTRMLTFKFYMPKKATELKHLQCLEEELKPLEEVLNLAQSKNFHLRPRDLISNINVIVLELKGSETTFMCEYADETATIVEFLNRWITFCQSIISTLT | N
R38G, SQVLKA (ligand) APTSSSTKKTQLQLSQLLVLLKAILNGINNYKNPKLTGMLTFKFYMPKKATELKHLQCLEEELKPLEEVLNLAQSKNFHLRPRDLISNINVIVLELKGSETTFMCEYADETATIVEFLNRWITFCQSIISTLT | Y
L18W, SQVLKA (ligand) APTSSSTKKTQLQLSQLWVLLKAILNGINNYKNPKLTRMLTFKFYMPKKATELKHLQCLEEELKPLEEVLNLAQSKNFHLRPRDLISNINVIVLELKGSETTFMCEYADETATIVEFLNRWITFCQSIISTLT | Y
Q74N, SQVLKA (ligand) APTSSSTKKTQLQLSQLLVLLKAILNGINNYKNPKLTRMLTFKFYMPKKATELKHLQCLEEELKPLEEVLNLANSKNFHLRPRDLISNINVIVLELKGSETTFMCEYADETATIVEFLNRWITFCQSIISTLT | Y
